Measurement protocol: activity coefficient (dimensionless); of the first substance listed, at infinite dilution; xn = mol fraction of the nth substance listed
Experimental setup: 322.55 K; Liquid; inverse gas chromatography; x1 = 0
Could you please mark Fulfilled for values of activity coefficient below 1 and Not fulfilled for values at or above it?

Please indicate whether the reported activity coefficient of CCc1ccccc1 [ethylbenzene] + CCCCn1cc[n+](C)c1.F[B-](F)(F)F is strictly below 1.
Not fulfilled

Param item: CCCCO [butan-1-ol] + CCCCn1cc[n+](C)c1.F[B-](F)(F)F
Not fulfilled

Param item: CCO [ethanol] + CCCCn1cc[n+](C)c1.F[B-](F)(F)F
Not fulfilled

Param item: CC1CCCC1 [methylcyclopentane] + CCCCn1cc[n+](C)c1.F[B-](F)(F)F
Not fulfilled

Param item: c1ccsc1 [thiophene] + CCCCn1cc[n+](C)c1.F[B-](F)(F)F
Not fulfilled

Param item: c1ccncc1 [pyridine] + CCCCn1cc[n+](C)c1.F[B-](F)(F)F
Fulfilled

Param item: CC#N [acetonitrile] + CCCCn1cc[n+](C)c1.F[B-](F)(F)F
Fulfilled

Param item: C[N+](=O)[O-] [nitromethane] + CCCCn1cc[n+](C)c1.F[B-](F)(F)F
Fulfilled

Param item: CCC=O [propanal] + CCCCn1cc[n+](C)c1.F[B-](F)(F)F
Not fulfilled
